Data provenance is PubChem BioAssay AID720554.

tested on: acyl-homoserine lactone synthase BmaI1 (Burkholderia mallei ATCC 23344); experiment: BmaI1 acyl-homoserine lactone synthase inhibition – biochemical, fluorescence intensity, with counterscreen (AID 720554); details: BmaI1 enzyme assay, stronger effect = higher value, concentration not given here
Screen size: about 12,000 compounds; about 45 (0.4%) were called active. The sample holds actives, similar compounds and a random draw of the others, so the mix is not that of the screen.
I would appreciate it if you labelled entries y when inhibition is 30% or higher, otherwise n.

*Q* State whether the measured inhibition reaches 30%, counting equality as reaching it, for CN(C)S(=O)(=O)c1cccc(-c2nnc3n2N=C(c2cccs2)CS3)c1
*A* y

*Q* Likewise for Oc1cc2c(cc1C(c1ccc(C(F)(F)F)cc1)N1CCN(c3ccccc3)CC1)OCO2 (stereo not drawn) ?
*A* n

*Q* Likewise for O=C(O)CCN(Cc1ccccc1)S(=O)(=O)c1cccs1 ?
*A* n

*Q* Likewise for CN(C)S(=O)(=O)c1cccc(-c2nnc3n2CCCCC3)c1 ?
*A* n

*Q* Likewise for COC(=O)c1ccc(C(c2cc3c(cc2O)OCO3)N2CCN(c3ccccc3)CC2)cc1 (stereo not drawn) ?
*A* y

*Q* Likewise for CN(C)Cc1ccccc1C#N ?
*A* n

*Q* Likewise for COC(=O)c1ccc(C(c2c(O)ccc3ccccc23)N2CCOCC2)cc1 (stereo not drawn) ?
*A* n

====

experiment: BmaI1 acyl-homoserine lactone synthase inhibition – biochemical, fluorescence intensity, with counterscreen (AID 720554); conditions: BmaI1 enzyme assay, measured here: counterscreen fluorescence % control, concentration not given here
About 45 (0.4%) of roughly 12,000 compounds were called active. The sample as a whole holds a higher share of actives than the screen did.
I would appreciate it if you labelled entries Yes when inhibition is 10% or higher, otherwise No.

{"COMPOUND": "Cc1cc(C)nc(SC2=C(N3CCC(C)CC3)C(=O)N(Cc3ccccc3)C2=O)n1", "CATEGORY": "No"}
{"COMPOUND": "O=C(NCc1ccccc1)c1cccc(OCC(=O)N2CCOCC2)c1", "CATEGORY": "No"}

*Q* State whether the measured inhibition reaches 10%, counting equality as reaching it, for NC(=S)Cc1nc2ccccc2[nH]1
*A* Yes

*Q* Likewise for N/C(Cc1nc2ccccc2[nH]1)=N\O ?
*A* No

*Q* Likewise for Cc1cc(C)nc(SCC(=O)OCCN2C(=O)c3ccccc3C2=O)n1 ?
*A* No

====

Measured inhibition, listed per entry.
experiment: BmaI1 acyl-homoserine lactone synthase inhibition – biochemical, fluorescence intensity, with counterscreen (AID 720554); conditions: BmaI1 enzyme assay, measured here: counterscreen fluorescence % control, concentration not given here
Hit rate of the full screen: of about 12,000 compounds, about 45 (0.4%) were called active. Shown is part of a subset that was picked to be rich in actives.
Write the answer as a number in %, unit excluded.

{"COMPOUND": "Cc1cc(C)nc(SC2=C(Nc3ccc(O)cc3)C(=O)N(Cc3ccccc3)C2=O)n1", "OBS VALUE": 26.5}
{"COMPOUND": "COc1ccc(N(C)S(=O)(=O)c2cccc(C(=O)Nc3ccc(N4CCN(C)CC4)cc3C)c2)cc1", "OBS VALUE": 11.5}
{"COMPOUND": "CCCn1c(C)cc(/C=C(\\C#N)C(=O)Oc2c(C)ccc(C)c2C)c1C", "OBS VALUE": 2.5}
{"COMPOUND": "CCOc1ccccc1NC(=O)CSc1nc(O)cc(=O)n1C1CCCC1", "OBS VALUE": 5.5}
{"COMPOUND": "COC(=O)C1=C(C)NC(C)=C(C(=O)OC)C1C(=O)OCC(=O)Nc1cccc2nsnc12", "OBS VALUE": -2}

*Q* // query inhibition value for entry CCn1c(Cn2cc(S(=O)(=O)N3CCCC3)ccc2=O)nc2cc(S(=O)(=O)N(C)C)ccc21
*A* 1

*Q* Likewise for Nn1cc(-c2ccccc2)[nH]c1=S ?
*A* 52

*Q* Likewise for Cc1cccc(OCc2nnc3n2-c2ccccc2SC3)c1 ?
*A* -6.5
